Where these numbers come from: PubChem BioAssay (EPA / NIEHS)

Read-out: CD40, CD40 (gene 958)
test.details: BSK_SAg_CD40: BioMAP Diversity Plus: SAg Assay for CD40 Biomarker Activity (AID 2283088)
condition.notes: primary human HUVEC with PBMC; actives raise or lower the signal
Active and inactive are the calls of the source. How the source made its calls: active means hit-call score of the fitted dose curve at least 0.9, where 1 is the maximum; inactive means score below 0.9.
Field 'call' accepts TRUE = active, FALSE = inactive

Inquiry: Just curious, what result did `OC(c1ccc(Cl)cc1)(c1ccc(Cl)cc1)C(Cl)(Cl)Cl` get here?
Reply text: TRUE

Inquiry: Just curious, what result did CCCCC(C#N)(Cn1cncn1)c1ccc(Cl)cc1 (stereo not drawn) get here?
Reply text: FALSE

Inquiry: Just curious, what result did `COP(=S)(OC)Oc1ccc([N+](=O)[O-])c(C)c1` get here?
Reply text: TRUE

Inquiry: Just curious, what result did `Cc1cc(C)nc(Nc2ccccc2)n1` get here?
Reply text: FALSE

Inquiry: Just curious, what result did CCC(C)n1c(=O)[nH]c(C)c(Br)c1=O (stereo not drawn) get here?
Reply text: FALSE

Inquiry: Just curious, what result did `Cn1c(-c2ccccc2)cc(-c2ccccc2)[n+]1C` get here?
Reply text: TRUE

Inquiry: Just curious, what result did `CS(=O)(=O)c1ccc(C(=O)C2C(=O)CCCC2=O)c([N+](=O)[O-])c1` get here?
Reply text: FALSE

Inquiry: Just curious, what result did `C=C(C)CN(CC)c1c([N+](=O)[O-])cc(C(F)(F)F)cc1[N+](=O)[O-]` get here?
Reply text: FALSE

Inquiry: Just curious, what result did COCC(=O)N(c1c(C)cccc1C)C(C)C(=O)OC (stereo not drawn) get here?
Reply text: FALSE

Inquiry: Just curious, what result did O=C1C2CC=CCC2C(=O)N1SC(Cl)(Cl)Cl (stereo not drawn) get here?
Reply text: FALSE

Inquiry: Just curious, what result did CCOC(=O)C(C)OC(=O)c1cc(Oc2ccc(C(F)(F)F)cc2Cl)ccc1[N+](=O)[O-] (stereo not drawn) get here?
Reply text: TRUE

Inquiry: Just curious, what result did `CN/C(=N\[N+](=O)[O-])NCc1cnc(Cl)s1` get here?
Reply text: FALSE

Inquiry: Just curious, what result did `O=C(O)c1c(Cl)ccc2cc(Cl)cnc12` get here?
Reply text: FALSE
